Where do these numbers come from? They come from PubChem BioAssay (NCI).

System: K-562 leukemia
Experiment: NCI tumour cell line growth inhibition, 48 h
Would you mind telling me the reported TGI of each entry?

// field: TGI; key: `CC1(C)CS(=O)(=O)CC(C)(C)C(=N/N)/C1=N\N` ; value = > 100 µM

TGI reported for this compound `Cc1sc(Cc2ccccc2)nc1-c1ccc(N)cc1` : > 100 µM

compound `CNC(=O)OCc1c(COC(=O)NC)c(C)n(-c2ccc(Br)cc2)c1C` , TGI observed: 95.1 µM

Entry COc1c2c(cc3oc(C)cc(=O)c13)OC(=N)C(C(N)=O)C2CC(=O)c1ccc(N)cc1 (centres undefined) — recorded TGI = > 100 µM

---

Test system: PC-3 prostate
Assay: NCI tumour cell line growth inhibition, 48 h
measured metric: TGI

Reported PC-3 prostate TGI for item `Cc1cc(N/N=C/c2nc(-c3ccc(Br)cc3)oc2C)c2cc(Cl)ccc2n1` was > 100 µM

For the compound Cc1ccc(N2C(=O)C3c4[nH]c5ccccc5c4C4CCC(C(C)(C)C)CC4C3C2=O)cc1 (stereo unspecified) , the measured TGI on PC-3 prostate was 31.8 µM

Tested on PC-3 prostate, the item COC(=O)C1=CSC2(S1)C(C(=O)OC)=CSc1c2ssc1=Nc1ccccc1 (stereo unspecified) showed TGI equal to > 100 µM

Tested on PC-3 prostate, the item CC12Nc3ccccc3N1C(=O)c1ccccc12 (stereo unspecified) showed TGI equal to > 100 µM

Entry `CCOC(=O)CSc1nc(-c2ccccc2)c(C#N)c(=O)[nH]1` under PC-3 prostate had TGI of > 100 µM

PC-3 prostate data for `O=C(c1ccccc1)c1ccc(COc2ccc(C(c3c(O)c4ccccc4oc3=O)c3c(O)c4ccccc4oc3=O)cc2)cc1` ; its TGI: 34.9 µM

Test item `C=C1CC[C@@H]2[C@](C)(COC(C)=O)[C@@H](O)CC[C@@]2(C)[C@@H]1COc1ccc2ccc(=O)oc2c1` ; PC-3 prostate; reported TGI was > 100 µM

PC-3 prostate data for `Cc1ccc(/C=N/Nc2cnccn2)s1` ; its TGI: > 100 µM

Entry `COc1cc(OC)c(OC)cc1/C=N/N=C(\N)NO` , tested on PC-3 prostate, has a reported TGI of > 100 µM

Response field TGI (PC-3 prostate) for item `O=C1C(=O)c2c(nc3ccc(Cl)cn23)-c2ccccc21` : 10.6 µM

Form field TGI for item `CCCCNCC(=O)O[C@]1(CC)C(=O)OCc2c1cc1n(c2=O)Cc2cc3ccccc3nc2-1` on PC-3 prostate: > 100 µM

---

System: CCRF-CEM leukemia
Experiment: NCI tumour cell line growth inhibition, 48 h
Please respond with reported TGI for every item in the list.

Item `O=S(=O)(c1ccccc1)C(CN1CCCCC1)S(=O)(=O)c1ccccc1` ; assay system CCRF-CEM leukemia; TGI reported as > 100 µM

The reported TGI value, CCRF-CEM leukemia, for `Cc1c(C#N)c(=O)[nH]c(=O)n1CCN1CCN(C(=O)NCCCCCCNC(=O)N2CCN(CCn3c(C)c(C#N)c(=O)[nH]c3=O)CC2)CC1` reads > 100 µM

The compound CSc1nc(N)c(NC2OC(CO)C(O)C2O)c(=O)[nH]1 (stereo not drawn) , tested on CCRF-CEM leukemia, showed TGI of > 100 µM

Form field TGI for item COc1nc2c(c(=O)n1C)N(C(C)=O)C1C(N2)OCC(OC(C)=O)C1OC(C)=O (stereo not drawn) on CCRF-CEM leukemia: > 10 µM

Entry `CCCCCCCCCCCC(=O)OCCOCCOCCOCCOCCOCc1ccc(OC)cc1` , tested on CCRF-CEM leukemia, has a reported TGI of > 100 µM

The compound CCC1C(c2cc(OC)c(OC)c(OC)c2)c2cc3c(cc2OC1N1CCCC1)OCO3 (stereo not drawn) on CCRF-CEM leukemia: TGI was 11.9 µM

Tested on CCRF-CEM leukemia: c1ccc2c(C3NCCc4[nH]cnc43)cccc2c1 (stereo not drawn) . Observed TGI: > 100 µM

Entry `CC(=O)NC1=C(OS(=O)(=O)c2ccc(C)cc2)CN(C)C1=O` , tested on CCRF-CEM leukemia, has a reported TGI of 4.28 µM

CCRF-CEM leukemia data for `CCCN(C(=O)c1c(Cl)nnc(Cl)c1C(=O)c1cc(Cl)nnc1Cl)c1cc(Cl)nnc1Cl` ; its TGI: 10.6 µM

Entry `CCCCCCNC(=O)c1cnc(Cl)cn1` under CCRF-CEM leukemia had TGI of > 100 µM

Measured TGI for this entry `C=CC(=O)Nc1cccc(C)c1Nc1cc(-c2cccnc2Cc2c(C)c(OC)cc(OC)c2C)ncn1` on CCRF-CEM leukemia: > 100 µM

Form field, TGI with CCRF-CEM leukemia, item `COc1ccc(-c2cc(-c3ccccc3)nc(SCCCC(=O)NO)n2)cc1` : 13.5 µM

// assay CCRF-CEM leukemia, entry `COc1cc(OC)c(OC)cc1/C=N/N=C(\N)NO` , TGI value = > 100 µM
